Where these numbers come from: patent US20120129870A1

- testedOn: NPY Y2 receptor (Homo sapiens, UniProt P49146)
- Sequence (P49146 1-381): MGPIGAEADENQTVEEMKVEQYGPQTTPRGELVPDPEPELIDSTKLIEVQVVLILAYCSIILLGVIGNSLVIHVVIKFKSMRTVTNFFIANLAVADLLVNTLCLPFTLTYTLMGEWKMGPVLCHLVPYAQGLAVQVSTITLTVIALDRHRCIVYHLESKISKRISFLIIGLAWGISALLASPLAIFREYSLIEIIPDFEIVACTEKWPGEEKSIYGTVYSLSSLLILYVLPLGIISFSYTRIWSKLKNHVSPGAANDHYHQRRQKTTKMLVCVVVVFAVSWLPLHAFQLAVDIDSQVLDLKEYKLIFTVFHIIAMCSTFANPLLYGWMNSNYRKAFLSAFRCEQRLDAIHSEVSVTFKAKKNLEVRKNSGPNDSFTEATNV
- protocolText: Neuropeptide Y2 pKB assay (FLIPR, KAN-Ts cells stably expressing chimeric G proteins)
- Assay type: cell-based
- conditionNotes: apparent pKB, modified Cheng-Prusoff correction
propertyMeasured: Kb (nM)
Numbers only, in nM.

molecule="CCC(CC)C(=O)Nc1ccc(N2CCN(C(c3ccc(C#N)cc3)c3ncco3)CC2)c(C#N)c1 (stereo not drawn) [Compound 145]" propertymeasured=Kb resultvalue=63.1
molecule="CCC(CC)C(=O)Nc1ccc(N2CCN(C(c3ccccc3)c3cc(C)no3)CC2)c(F)c1 (stereo not drawn) [Compound 230]" propertymeasured=Kb resultvalue=25.1

Could you now look at the following molecule, please?
Item CCc1nnc(C(c2ccccc2)N2CCN(c3ccc(NC(=O)C(CC)CC)cc3F)CC2)o1 (stereo not drawn) [Compound 153] : provide Kb
39.8
